testedTarget: LIGHT without residues 81-84, stably expressed on EL4 cells (EL4-NC-LIGHT)
protocol: cell-based or functional assay
The reader will find reported IC50, inhibition of IL-8 secretion, HT-29 + EL4-NC-LIGHT cells values listed item by item below.
Note: unit nM is implicit; provide only the numeric part.

For orientation, consider the following solved cases.
binder	quantitativeResult
3B04_var5 (antibody, V domains shown) VH: QVQLVQSGAEVKKPGASVKVSCKASGYTFTDYEMHWVRQAPGQGLEWIGEIDPETGDTAYSQKFKGRATLTADKSTSTAYMEFSSLRSEDTAVYYCSRETDYFFDYWGQGTLVTVSS VL: DIQMTQSPSSLSASVGDRVTITCGASENIYGALNWYQRKQGKAPKLLIYGATNLADGVPSRFSGSGSGRDYTLTISSLQPEDFATYYCQNVLTTPWTFGQGTKLEIKR	0.04
3D12_var2 (antibody, V domains shown) VH: QVQLVQSGAEVKKPGASVKVSCKASDYTFTDSEIHWVRQAPGQGLEWIGEIDPETGGTAYNQKFQGRVTLTADKSTSTAYMELSSLRSEDTAVYYCSRETDYFFDYWGQGTLVTVSS VL: DIQMTQSPSSLSASVGDRVTITCGASENIYGALNWYQRKQGKAPQLLIYGATNLADGVSSRFSGSGSGRDYTLTISSLQPEDVATYYCQNVLSTPWTFGQGTKLEIKR	0.74

Prompt: What value of measured IC50, inhibition of IL-8 secretion, HT-29 + EL4-NC-LIGHT cells is listed for 3D12_var5 (antibody, V domains shown) VH: QVQLVQSGAEVKKPGASVKVSCKASDYTFTDSEIHWVRQAPGQGLEWIGEIDPETGGTAYNQKFKGRATLTADKSTSTAYMELSSLRSEDTAVYYCSRETDYFFDYWGQGTLVTVSS VL: DIQMTQSPSSLSASVGDRVTITCGASENIYGALNWYQRKQGKAPKLLIYGATNLADGVPSRFSGSGSGRDYTLTISSLQPEDVATYYCQNVLSTPWTFGQGTKLEIKR ?
Response: 0.59

Prompt: Endpoint output: IC50, inhibition of IL-8 secretion, HT-29 + EL4-NC-LIGHT cells of 3B04_var9 (antibody, V domains shown) VH: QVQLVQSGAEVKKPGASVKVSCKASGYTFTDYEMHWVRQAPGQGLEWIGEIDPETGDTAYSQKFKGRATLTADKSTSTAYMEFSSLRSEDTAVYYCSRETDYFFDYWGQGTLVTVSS VL: DIQMTQSPSSLSASVGDRVTITCGASENIYGALNWYQQKPGKAPKLLIYGATNLADGVPSRFSGSGSGRDYTLTISSLQPEDFATYYCQNVLTTPWTFGQGTKLEIKR . Value?
Response: 0.09

Prompt: Which value of IC50, inhibition of IL-8 secretion, HT-29 + EL4-NC-LIGHT cells has been reported for 3B04_var8 (antibody, V domains shown) VH: QVQLVQSGAEVKKPGASVKVSCKASGYTFTDYEMHWVRQAPGQGLEWMGEIDPETGDTAYAQKFQGRVTLTADKSTSTAYMELSSLRSEDTAVYYCSRETDYFFDYWGQGTLVTVSS VL: DIQMTQSPSSLSASVGDRVTITCGASENIYGALNWYQRKQGKAPKLLIYGATNLADGVPSRFSGSGSGRDYTLTISSLQPEDFATYYCQNVLTTPWTFGQGTKLEIKR in the records?
Response: 0.05

Prompt: Field request: IC50, inhibition of IL-8 secretion, HT-29 + EL4-NC-LIGHT cells | item: 3D12_var1 (antibody, V domains shown) VH: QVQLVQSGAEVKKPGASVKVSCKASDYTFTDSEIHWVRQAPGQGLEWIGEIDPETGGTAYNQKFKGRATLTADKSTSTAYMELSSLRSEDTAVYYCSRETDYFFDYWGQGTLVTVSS VL: DIQMTQSPSSLSASVGDRVTITCGASENIYGALNWYQRKQGKAPQLLIYGATNLADGVSSRFSGSGSGRDYTLTISSLQPEDVATYYCQNVLSTPWTFGQGTKLEIKR
Response: 0.33

Prompt: Dear colleague, I am looking for the recorded IC50, inhibition of IL-8 secretion, HT-29 + EL4-NC-LIGHT cells of the following binder: 3D12_var6 (antibody, V domains shown) VH: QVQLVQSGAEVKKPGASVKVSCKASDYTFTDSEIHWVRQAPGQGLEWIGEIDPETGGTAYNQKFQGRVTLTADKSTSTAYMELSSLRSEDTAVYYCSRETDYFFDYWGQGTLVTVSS VL: DIQMTQSPSSLSASVGDRVTITCGASENIYGALNWYQRKQGKAPKLLIYGATNLADGVPSRFSGSGSGRDYTLTISSLQPEDVATYYCQNVLSTPWTFGQGTKLEIKR
Response: 0.47
